systemTested: KRas^G12S (Homo sapiens, UniProt P01116, G12S)
Construct: […]; biotin (biotinylated)
Sequence (P01116 1-169 isoform P01116-2 G12S): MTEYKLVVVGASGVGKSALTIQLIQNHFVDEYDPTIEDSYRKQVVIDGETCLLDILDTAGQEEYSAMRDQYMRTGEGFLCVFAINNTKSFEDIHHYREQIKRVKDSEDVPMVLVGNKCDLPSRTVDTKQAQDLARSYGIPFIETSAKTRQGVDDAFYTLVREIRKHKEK
measurementDescription: KRas binding assay (TR-FRET displacement of Cy5 labelled tracer)
quantityName: IC50 (µM)
Field format: number, assumed µM, no unit text.

• CCc1cccc2cccc(N3CCc4c(nc(OCC56CCCN5CCC6)nc4N4CCCc5ncccc5C4)C3)c12 = 1.16
• O=C1NC(=O)C2CN(c3nc(OCC45CCCN4CCC5)nc4c3CCN(c3cccc5cccc(F)c35)C4)CC12 (stereo not drawn) = 1.16

Shifting focus to the compound that follows.
Case CCc1c(F)ccc2cc(O)cc(N3CCc4c(nc(OC[C@@]56CCCN5C[C@H](F)C6)nc4N4CCC(c5[nH]ncc5N)C4)C3)c12 (stereo partly drawn) , KRas^G12S (Homo sapiens, UniProt P01116, G12S), IC50 recorded as 0.01
